- Tested on: MEL-HO
- experimentalDetails: cells
- Type: functional, cell-based, Homo sapiens
- measurementParameters: Homo sapiens, MEL-HO
- Description: SANGER: Inhibition of human MEL-HO cell growth in a cell viability assay.
outcomeMeasure: IC50

Below are worked cases with known answers.
molecule | testedSystem | IC50
CC(=O)O[C@@]12CO[C@@H]1C[C@H](O)[C@@]1(C)C(=O)[C@H](O)C3=C(C)[C@@H](OC(=O)[C@H](O)[C@@H](NC(=O)OC(C)(C)C)c4ccccc4)C[C@@](O)([C@@H](OC(=O)c4ccccc4)[C@H]21)C3(C)C [DOCETAXEL] | MEL-HO | > 0.01 µM
O=c1cc(-c2cccc3c2Sc2ccccc2S3)oc(N2CCOCC2)c1 [KU-55933] | MEL-HO | > 10 µM

Next item in the queue.
Provide IC50, recorded with MEL-HO, of COC(=O)CNC(=O)C(=O)OC 3610 µM

###

- Tested on: KY821;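 note: growth inhibition of human KY821 cells, read out by a cell viability assay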
- experimentalDetails: cells
- Assay type: functional, cell-based
- measurementParameters: Homo sapiens
- Description: SANGER: Inhibition of human KY821 cell growth in a cell viability assay.
pIC50: −log10 of the molar value.
We begin with a simple list: items and their reported pIC50.

Below are worked cases with known answers.
compound | testedSystem | pIC50
Cc1cc(Nc2cc(N3CCN(C)CC3)nc(Sc3ccc(NC(=O)C4CC4)cc3)n2)n[nH]1 [TOZASERTIB] | KY821 | < 5.70
Cc1cc([C@@H](C)Nc2ccccc2C(=O)O)c2nc(N3CCOCC3)cc(=O)n2c1 [AZD-6482] | KY821 | < 5.29
COc1cc([C@@H]2c3cc4c(cc3[C@@H](O[C@@H]3O[C@@H]5CO[C@@H](C)O[C@H]5[C@H](O)[C@H]3O)[C@H]3COC(=O)[C@H]23)OCO4)cc(OC)c1O [ETOPOSIDE] | KY821 | < 4.80

Next item in the queue.
Input CO[C@H]1C[C@@H]2CC[C@@H](C)[C@@](O)(O2)C(=O)C(=O)N2CCCC[C@H]2C(=O)O[C@H]([C@H](C)C[C@@H]2CC[C@@H](O)[C@H](OC)C2)CC(=O)[C@H](C)/C=C(\C)[C@@H](O)[C@@H](OC)C(=O)[C@H](C)C[C@H](C)/C=C/C=C/C=C/1C [SIROLIMUS] , output reported pIC50. < 7.00

###

- Test system: AM-38
- experimentalDetails: cells
- Format: functional, cell-based, Homo sapiens
- measurementParameters: am-38
- Description: SANGER: Inhibition of human AM-38 cell growth in a cell viability assay.
pIC50: −log10 of the molar value.
outcomeMeasure: pIC50

Input Cc1cc([C@@H](C)Nc2ccccc2C(=O)O)c2nc(N3CCOCC3)cc(=O)n2c1 , output reported pIC50. < 5.29

###

- Tested on: Daoy;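 note: daoy cell growth inhibition, read out as cell viability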
- experimentalDetails: cells
- Assay type: functional, cell-based, Homo sapiens
- measurementParameters: Homo sapiens, Daoy
- Description: SANGER: Inhibition of human Daoy cell growth in a cell viability assay.
outcomeMeasure: pIC50
Scale explanation: pIC50 corresponds to minus log10 of a concentration expressed in moles per litre.

compound | result
Cn1cncc1[C@@](N)(c1ccc(Cl)cc1)c1ccc2c(c1)c(-c1cccc(Cl)c1)cc(=O)n2C [TIPIFARNIB] | 7.24

Input C=CCNC1=C2C[C@@H](C)C[C@H](OC)[C@H](O)[C@@H](C)/C=C(\C)[C@H](OC(N)=O)[C@@H](OC)/C=C\C=C(/C)C(=O)NC(=CC1=O)C2=O [TANESPIMYCIN] , output reported pIC50. 6.50

###

- Test system: NCI-H28;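 note: growth inhibition of human NCI-H28 cells, read out as cell viability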
- experimentalDetails: cells
- Assay type: functional, cell-based, Homo sapiens
- measurementParameters: Homo sapiens, NCI-H28
- Description: SANGER: Inhibition of human NCI-H28 cell growth in a cell viability assay.
pIC50: −log10 of the molar value.
We begin with a simple list: items and their reported pIC50.

chemicalStructure | result
Cn1cncc1[C@@](N)(c1ccc(Cl)cc1)c1ccc2c(c1)c(-c1cccc(Cl)c1)cc(=O)n2C | < 4.80
O=C1N=C(NCc2cccs2)S/C1=C\c1ccc2ncccc2c1 | < 5.30
C=CCc1cccc(/C=N/NC(=O)CN2CCN(Cc3ccccc3)CC2)c1O | < 5.59
COc1ccc(-c2ccc3c(N4CCOC[C@@H]4C)nc(N4CCOC[C@@H]4C)nc3n2)cc1CO | 6.23
CN(c1ncccc1CNc1nc(Nc2ccc3c(c2)CC(=O)N3)ncc1C(F)(F)F)S(C)(=O)=O | < 5.59

Input Cc1ccc(Nc2nccc(N(C)c3ccc4c(C)n(C)nc4c3)n2)cc1S(N)(=O)=O , output reported pIC50. < 5.10

Input CC(=O)O[C@@]12CO[C@@H]1C[C@H](O)[C@@]1(C)C(=O)[C@H](O)C3=C(C)[C@@H](OC(=O)[C@H](O)[C@@H](NC(=O)OC(C)(C)C)c4ccccc4)C[C@@](O)([C@@H](OC(=O)c4ccccc4)[C@H]21)C3(C)C , output reported pIC50. 8.48

###

We begin with a simple list: items and their reported IC50.
- System: YH-13;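 note: cell viability readout of growth suppression in the human YH-13 cell line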
- experimentalDetails: cells
- Assay type: functional, cell-based
- measurementParameters: Homo sapiens
- Description: SANGER: Inhibition of human YH-13 cell growth in a cell viability assay.

Below are worked cases with known answers.
molecule | result
CN(C)C/C=C/C(=O)Nc1cc2c(Nc3ccc(F)c(Cl)c3)ncnc2cc1O[C@H]1CCOC1 [AFATINIB] | > 500 nM
O=C(c1cc(Cc2n[nH]c(=O)c3ccccc23)ccc1F)N1CCN(C(=O)C2CC2)CC1 [OLAPARIB] | > 5000 nM
Nc1ccn([C@@H]2O[C@H](CO)[C@@H](O)[C@@H]2O)c(=O)n1 [CYTARABINE] | 328 nM

Next item in the queue.
Input Cn1cc(C2=C(c3ccc(Cl)cc3Cl)C(=O)NC2=O)c2ccccc21 [SB-216763] , output reported IC50. > 10000 nM

###

- Tested on: BB65-RCC;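 note: growth inhibition of the cell line, measured with a cell viability assay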
- experimentalDetails: cells
- Assay type: functional, cell-based, Homo sapiens
- measurementParameters: Homo sapiens, BB65-RCC
- Description: SANGER: Inhibition of human BB65-RCC cell growth in a cell viability assay.
outcomeMeasure: pIC50
Scale explanation: pIC50 corresponds to minus log10 of a concentration expressed in moles per litre.

Below are worked cases with known answers.
compound | result
COc1ccc(-c2ccc3c(N4CCOC[C@@H]4C)nc(N4CCOC[C@@H]4C)nc3n2)cc1CO [AZD-8055] | 6.51
CNC(=O)c1cc(Oc2ccc(NC(=O)Nc3ccc(Cl)c(C(F)(F)F)c3)cc2)ccn1 [SORAFENIB] | 6.33

Next item in the queue.
Input Cc1cc(Nc2cc(N3CCN(C)CC3)nc(Sc3ccc(NC(=O)C4CC4)cc3)n2)n[nH]1 [TOZASERTIB] , output reported pIC50. 5.93

###

- System: KS-1;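 note: growth inhibition of KS-1 cells, read out with a cell viability assay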
- experimentalDetails: cells
- Format: functional, cell-based, Homo sapiens
- measurementParameters: Homo sapiens, KS-1
- Description: SANGER: Inhibition of human KS-1 cell growth in a cell viability assay.
We begin with a simple list: items and their reported IC50.

Below are worked cases with known answers.
molecule | IC50
Cc1ccc(Nc2nccc(N(C)c3ccc4c(C)n(C)nc4c3)n2)cc1S(N)(=O)=O | > 8000 nM
C=C1C(=O)O[C@@H]2C3O[C@]3(C)CC/C=C(\C)CC[C@@H]12 (stereo partly specified) | > 5000 nM
Cc1cc([C@@H](C)Nc2ccccc2C(=O)O)c2nc(N3CCOCC3)cc(=O)n2c1 | > 5120 nM
CCC(=O)N1CCN(c2ccc(-n3c(=O)ccc4cnc5ccc(-c6cnc7ccccc7c6)cc5c43)cc2C(F)(F)F)CC1 | 13.9 nM

Input C=CCc1cccc(/C=N/NC(=O)CN2CCN(Cc3ccccc3)CC2)c1O , output reported IC50. > 2560 nM

Input CN(Cc1cnc2nc(N)nc(N)c2n1)c1ccc(C(=O)N[C@@H](CCC(=O)O)C(=O)O)cc1 [METHOTREXATE] , output reported IC50. > 200 nM

###

- System: SNU-C2B;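 note: cell viability readout used to measure compound-driven suppression of SNU-C2B cell proliferation, IC50 marking half-maximal growth inhibition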
- experimentalDetails: cells
- Format: functional, cell-based, Homo sapiens
- measurementParameters: Homo sapiens, SNU-C2B
- Description: SANGER: Inhibition of human SNU-C2B cell growth in a cell viability assay.
We begin with a simple list: items and their reported IC50.

Below are worked cases with known answers.
molecule | IC50
O=C1N=C(NCc2cccs2)S/C1=C\c1ccc2ncccc2c1 | > 5 µM
Cn1cncc1[C@@](N)(c1ccc(Cl)cc1)c1ccc2c(c1)c(-c1cccc(Cl)c1)cc(=O)n2C | 10.4 µM
CN(C)C/C=C/C(=O)Nc1cc2c(Nc3ccc(F)c(Cl)c3)ncnc2cc1O[C@H]1CCOC1 | > 0.5 µM
CN(Cc1cnc2nc(N)nc(N)c2n1)c1ccc(C(=O)N[C@@H](CCC(=O)O)C(=O)O)cc1 [METHOTREXATE] | 0.145 µM
COC(=O)CNC(=O)C(=O)OC | > 4000 µM
CN(c1ncccc1CNc1nc(Nc2ccc3c(c2)CC(=O)N3)ncc1C(F)(F)F)S(C)(=O)=O | > 2.56 µM
C=CCc1cccc(/C=N/NC(=O)CN2CCN(Cc3ccccc3)CC2)c1O | > 2.56 µM
CC(=O)O[C@@]12CO[C@@H]1C[C@H](O)[C@@]1(C)C(=O)[C@H](O)C3=C(C)[C@@H](OC(=O)[C@H](O)[C@@H](NC(=O)OC(C)(C)C)c4ccccc4)C[C@@](O)([C@@H](OC(=O)c4ccccc4)[C@H]21)C3(C)C | > 0.01 µM
O=C(NOCC1CC1)c1ccc(F)c(F)c1Nc1ccc(I)cc1Cl | > 10 µM
C=CCNC1=C2C[C@@H](C)C[C@H](OC)[C@H](O)[C@@H](C)/C=C(\C)[C@H](OC(N)=O)[C@@H](OC)/C=C\C=C(/C)C(=O)NC(=CC1=O)C2=O | 0.58 µM

Next item in the queue.
Input CCOc1nc(NC(=O)Cc2cc(OC)ccc2OC)cc(N)c1C#N , output reported IC50. > 10 µM

Ref: ChEMBL document CHEMBL1201861
